# Tested on: SNB-75
# method: NCI tumour cell line growth inhibition, 48 h
Activity calls are given as the source filed them. Cut-off read from the data, not from the text of the source: active = GI50 up to about 1.1 µM and inactive = higher.
Form entry, call: pick from Yes (active), No (inactive)

Ask | // return assay outcome for CCOC(=O)c1cc2cc(CSc3ccccc3)ccc2oc1=O
Reply | No

Ask | Answer briefly: the call reported for C#CCN(N=O)C(=O)NCCCCC(NC(C)=O)C(=O)NCc1ccccc1 (stereo not given) in this assay.
Reply | No

Ask | // param item: CCn1c(=O)c2c3ccc(OC)cc3[nH]c2c2ccc(OC)cc21 ; yields the recorded call
Reply | No

Ask | Which result was noted for this molecule in the test: Cc1ccc(C2SCC(=O)N2c2ccc(-n3c(-c4ccccc4)nc4ccccc4c3=O)cc2)cc1 (stereo not given)
Reply | No

Ask | State the result this test recorded for COc1cc(S(=O)(=O)Nc2ccc(-c3csc(N4C(=O)CSC4c4cccs4)n3)cc2)ccc1Cl (stereo not given) .
Reply | No

Ask | Look up the recorded call for CC(C)C(Br)CC/C(CBr)=C(\Cl)CCl (stereo not given) in this test.
Reply | No

Ask | Name the outcome recorded for CC(C)(C)c1ccc(-c2nnc(SCc3ccc(Cl)cc3)n2-c2cccc(C(F)(F)F)c2)cc1 in the assay.
Reply | No

Ask | Entry N#Cc1cnn2cc[nH]c12 : call = ?
Reply | No

Ask | Record request — test call for COC(C)(C)[C@@H]1CCCN1C1=C(C)C(=O)OC1
Reply | No

Ask | Short answer needed: outcome of this test for S=C(Nc1ccc2c(c1)oc1ccccc12)c1cccnc1 ?
Reply | No

Ask | Field: outcome | Entry: COc1cccc2c1C(=O)c1c(O)c3c(c(O)c1C2=O)C[C@@](O)(C(=O)CO)C[C@@H]3OC1CC(N(C)C)C(O)C(C)O1 (stereo not given in full)
Reply | Yes

Ask | Recorded call for COc1ccc(C(=O)C(c2ccc(OC)cc2)C2(O)C(=O)Nc3ccccc32)cc1 (stereo not given) ?
Reply | No

Ask | Outcome logged for Cc1cccc(NC(=O)C(=O)C(C2OC(=O)c3ccccc32)[N+](=O)[O-])c1C (stereo not given) in this assay:
Reply | No

Ask | Called result for Cc1cc(Br)cc(C)c1NC(=O)C(=O)CC(=O)c1sc(-n2nc(-c3ccccc3)cc2-c2ccccc2)nc1C
Reply | No

Ask | Hello, I am checking results. What call was entered for CCn1c2ccccc2c2ccc3c(c21)C(=O)c1ccccc1C3=O ?
Reply | No

* * *

# System: NCI-H522
# method: NCI tumour cell line growth inhibition, 48 h
Calls of active or inactive are those of the source. Cut-off read from the data, not from the text of the source: active = GI50 up to about 1.1 µM and inactive = higher.
Give your call using only these classes: YES = active, NO = inactive

Ask | Returns: the outcome recorded for O=C1/C(=C/c2ccc(O)cc2)CCC1CNc1ccc(Cl)cc1 (stereo not drawn) in this assay.
Reply | YES

Ask | In this assay, the call recorded for Cc1ccccc1NC(=O)CC1C(=O)Nc2ccccc2[S+]1[O-] (stereo not drawn) was what?
Reply | NO

Ask | // param item: Cc1cc2c3c(c1)CCCN3CCC2 ; yields the recorded call
Reply | NO

Ask | Look up the recorded call for Cc1c/c(=N/NC(=O)c2ccncc2)n2nc(N)sc2n1 in this test.
Reply | NO

Ask | Which result was noted for this compound in the test: O[C@H]1[C@@H]2OC[C@@H](O)[C@H](OCc3ccccc3)[C@@](COCc3ccccc3)(O2)[C@@H]1OCc1ccccc1
Reply | NO

Ask | Entry CC(=O)OCC(OC(C)=O)C(OC(C)=O)C(OC(C)=O)C(C=NN(C(C)=O)S(=O)(=O)c1ccc(/C=C2\NC(=O)N(C)C2=O)cc1)OC(C)=O (stereo not drawn) : call = ?
Reply | NO

Ask | Call for entry O=C(O)/C=N\N=c1[nH]c2ccccc2[nH]1 :
Reply | NO

Ask | What classification did C=C=C(C)[Si](C)(C)C end up with in this test?
Reply | NO
